test: Metabolic stability in Crab eating monkey liver microsomes assessed as parent compound remaining at 1 uM measured after 60 mins by UPLC-MS/MS analysis
Format: ADME, Macaca fascicularis, Microsome
assay-setup: cynomolgus monkey, read-out: Stability
endpoint: remaining at 1 h, 1 µM
Answer with the figure and its unit, nothing else.

Looking for the measured remaining at 1 h, 1 µM of CC(C)NC[C@@H](C(=O)N1CCN(c2ncnc3c2[C@H](C)CC(=O)N3)[C@H]2C[C@H]21)c1ccc(Cl)cc1 , can you help? 23.1%

---

test: Cmax in Sprague-Dawley rat at 10 mg/kg, ig by UPLC-MS/MS analysis
Assay type: ADME, organism-based
Set-up: dose 10 mg/kg, route ig
assay-setup: in vivo, po
endpoint: Cmax (ng/mL)
Unit ng/mL implied. Number only.

Looking for the measured Cmax of CC(C)NC[C@@H](C(=O)N1CCN(c2ncnc3c2[C@H](C)CC(=O)N3)[C@H]2C[C@H]21)c1ccc(Cl)cc1 , can you help? 705

---

test: Cmax in overnight fasted ICR mouse at 10 mg/kg, po measured upto 24 hrs by UPLC-MS/MS analysis
Format: ADME, organism-based
Parameters: dose 10 mg/kg, time < 24 hrs, route po
assay-setup: in vivo
endpoint: Cmax
Answer with the figure and its unit, nothing else.

Looking for the measured Cmax of CC(C)NC[C@@H](C(=O)N1CCN(c2ncnc3c2[C@H](C)CC(=O)N3)CC1)c1ccc(Cl)cc1 , can you help? 84.3 ng/mL

---

test: Cmax in Sprague-Dawley rat at 5 mg/kg, iv measured upto 24 hrs by UPLC-MS/MS analysis
Type: ADME, organism-based
Design: dose 5 mg/kg, time < 24 hrs, route iv
assay-setup: in vivo
endpoint: Cmax
Answer with the figure and its unit, nothing else.

Looking for the measured Cmax of CC(C)NC[C@@H](C(=O)N1CCN(c2ncnc3c2[C@H](C)CC(=O)N3)[C@H]2C[C@H]21)c1ccc(Cl)cc1 , can you help? 1690 ng/mL

---

test: Metabolic stability in CD-1 mouse liver microsomes assessed as parent compound remaining at 1 uM measured after 60 mins by UPLC-MS/MS analysis
Format: ADME, Microsome
assay-setup: read-out: Stability
endpoint: remaining at 1 h, 1 µM (%)
Unit % implied. Number only.

Looking for the measured remaining at 1 h, 1 µM of CC(C)NC[C@@H](C(=O)N1CCN(c2ncnc3c2[C@H](C)CC(=O)N3)[C@H]2C[C@H]21)c1ccc(Cl)cc1 , can you help? 92.3

---

test: Metabolic stability in human liver microsomes assessed hepatic clearance at 1 uM measured after 60 mins by LC-MS/MS analysis
Format: ADME, Microsome
assay-setup: 1 h
endpoint: CLH (mL/min/kg)
Unit mL/min/kg implied. Number only.

Looking for the measured CLH of CC(C)NC[C@@H](C(=O)N1CCN(c2ncnc3c2[C@H](C)CC(=O)N3)[C@H]2C[C@H]21)c1ccc(Cl)cc1 , can you help? 8.96

---

Tested on: LNCaP
test: In vivo antitumor activity against human LNCap cells xenografted in NCG mouse assessed as tumor growth inhibition at 50 mg/kg administered once daily for 18 to 21 days relative to control
Type: functional
assay-setup: time 18-21 day, read-out: TGI
Kindly return True if reported inhibition in vivo at 50 mg/kg is no lower than 50%; return False if it is lower.

[[record]]
smiles_structure = "CC(C)NC[C@@H](C(=O)N1CCN(c2ncnc3c2[C@H](C)OC(=O)N3)[C@H]2C[C@H]21)c1ccc(Cl)cc1"
group = "True"

[[record]]
smiles_structure = "CC(C)NC[C@@H](C(=O)N1C2CCC1CN(c1ncnc3c1N(C)CC(=O)N3)C2)c1ccc(Cl)cc1.O=CO"
group = "False"


Assess whether reported inhibition in vivo at 50 mg/kg for CC(C)NC[C@@H](C(=O)N1C[C@H]2CC[C@@H](C1)N2c1ncnc2c1[C@H](C)OC(=O)N2)c1ccc(Cl)cc1 sits at 50% or higher. False

Likewise for CC(C)NC[C@@H](C(=O)N1CCN(c2ncnc3c2[C@H](C)CC(=O)N3)[C@H]2C[C@H]21)c1ccc(Cl)cc1 ? True

---

test: Tmax in crab-eating monkey at 6 mg/kg, ig by UPLC-MS/MS analysis
Format: ADME, organism-based, Macaca fascicularis
assay-setup: cynomolgus monkey, in vivo, po
endpoint: Tmax (h)
Unit h implied. Number only.

Looking for the measured Tmax of CC(C)NC[C@@H](C(=O)N1CCN(c2ncnc3c2[C@H](C)CC(=O)N3)[C@H]2C[C@H]21)c1ccc(Cl)cc1 , can you help? 4

---

System: LNCaP
test: Antiproliferative activity against human LNcap assessed as reduction in cell viability incubated for 72 hrs by Cell Titer Glo luminescent assay
Each entry below carries its recorded pIC50.
In textbook form, pIC50 equals minus log to base ten of the concentration in mol/L.

Looking for the measured pIC50 of [2H]C1([2H])N(C(=O)[C@H](CNC(C)C)c2ccc(Cl)cc2)C([2H])([2H])C([2H])([2H])N(c2ncnc3c2[C@H](C)CC(=O)N3)C1([2H])[2H] , can you help? 6.88

Likewise for CC(C)NC[C@@H](C(=O)N1C[C@H]2CC[C@@H](C1)N2c1ncnc2c1[C@H](C)OC(=O)N2)c1ccc(Cl)cc1 ? 6.63

Likewise for CC(C)NC[C@@H](C(=O)N1[C@@H]2CC[C@H]1CN(c1ncnc3c1[C@H](C)OC(=O)N3)C2)c1ccc(Cl)cc1 ? 7.08

Likewise for CC(C)NC[C@@H](C(=O)N1CCN(c2ncnc3c2[C@H](C)CC(=O)N3)CC1)c1ccc(Cl)cc1 ? 6.99

---

test: Cmax in NCG mouse xenografted with human LNCaP cells at 12.5 mg/kg administered once daily for 18 to 21 days and measured upto 10 hrs post last dose by LC-MS/MS analysis
Type: ADME, organism-based
assay-setup: in vivo
endpoint: Cmax (ng/mL)
Unit ng/mL implied. Number only.

Looking for the measured Cmax of CC(C)NC[C@@H](C(=O)N1CCN(c2ncnc3c2[C@H](C)CC(=O)N3)[C@H]2C[C@H]21)c1ccc(Cl)cc1 , can you help? 963

---

test: Metabolic stability in human liver microsomes assessed as parent compound remaining at 1 uM measured after 60 mins by UPLC-MS/MS analysis
Format: ADME, Microsome
assay-setup: read-out: Stability
endpoint: remaining at 1 h, 1 µM (%)
Unit % implied. Number only.

Looking for the measured remaining at 1 h, 1 µM of CC(C)NC[C@@H](C(=O)N1CCN(c2ncnc3c2[C@H](C)CC(=O)N3)[C@H]2C[C@H]21)c1ccc(Cl)cc1 , can you help? 62.9

---

Tested on: LNCaP
test: Antiproliferative activity against human LNcap assessed as reduction in cell viability incubated for 72 hrs by Cell Titer Glo luminescent assay
endpoint: IC50 (nM)
Unit nM implied. Number only.

[[record]]
smiles_structure = "CC(C)NC[C@@H](C(=O)N1CCN(c2ncnc3c2[C@H](C)OC(=O)N3)[C@H]2C[C@H]21)c1ccc(Cl)cc1"
endpoint = "IC50"
measured_result = 201


Give LNCaP IC50 for CC(C)NC[C@@H](C(=O)N1CC2CCC(C1)N2c1ncnc2c1[C@H](C)CC(=O)N2)c1ccc(Cl)cc1 446

Likewise for CC(C)NC[C@@H](C(=O)N1C2CCC1CN(c1ncnc3c1[C@H](C)CC(=O)N3)C2)c1ccc(Cl)cc1 ? 79

Likewise for CC(C)NC[C@@H](C(=O)N1C2CCC1CN(c1ncnc3c1N(C)CC(=O)N3)C2)c1ccc(Cl)cc1.O=CO ? 279

---

test: AUC (0 to infinity) in overnight fasted ICR mouse at 10 mg/kg, po measured upto 24 hrs by UPLC-MS/MS analysis
Format: ADME, organism-based
Parameters: dose 10 mg/kg, time < 24 hrs, route po
assay-setup: in vivo
endpoint: AUC(0-inf) (ng·h/mL)
Unit ng·h/mL implied. Number only.

[[record]]
smiles_structure = "CC(C)NC[C@@H](C(=O)N1CCN(c2ncnc3c2[C@H](C)CC(=O)N3)[C@H]2C[C@H]21)c1ccc(Cl)cc1"
measured_result = 2170

[[record]]
smiles_structure = "CC(C)NC[C@@H](C(=O)N1CCN(c2ncnc3c2[C@H](C)CC(=O)N3)CC1)c1ccc(Cl)cc1"
measured_result = 241

[[record]]
smiles_structure = "[2H]C1([2H])N(C(=O)[C@H](CNC(C)C)c2ccc(Cl)cc2)C([2H])([2H])C([2H])([2H])N(c2ncnc3c2[C@H](C)CC(=O)N3)C1([2H])[2H]"
measured_result = 947

[[record]]
smiles_structure = "CC(C)NC[C@@H](C(=O)N1C2CCC1CN(c1ncnc3c1[C@H](C)CC(=O)N3)C2)c1ccc(Cl)cc1"
measured_result = 911

[[record]]
smiles_structure = "CC(C)NC[C@@H](C(=O)N1CCN(c2ncnc3c2[C@H](C)OC(=O)N3)[C@H]2C[C@H]21)c1ccc(Cl)cc1"
measured_result = 2580


Looking for the measured AUC(0-inf) of CC(C)NC[C@@H](C(=O)N1C2CCC1CN(c1ncnc3c1N(C)CC(=O)N3)C2)c1ccc(Cl)cc1.O=CO , can you help? 2290

Likewise for CC(C)NC[C@@H](C(=O)N1CC2CCC(C1)N2c1ncnc2c1[C@H](C)CC(=O)N2)c1ccc(Cl)cc1 ? 1480

Likewise for CC(C)NC[C@@H](C(=O)N1[C@@H]2CC[C@H]1CN(c1ncnc3c1[C@H](C)OC(=O)N3)C2)c1ccc(Cl)cc1 ? 727

Likewise for CC(C)NC[C@@H](C(=O)N1C[C@H]2CC[C@@H](C1)N2c1ncnc2c1[C@H](C)OC(=O)N2)c1ccc(Cl)cc1 ? 3030
